# procedure summary: Human HepG2 cell viability assay in 384 well format
# Type: toxicity, cell-based
# Set-up: dose 125 nL, time 70.5 hour; concentration not given beside the values
# measurement context: HepG2 cells, read-out: Inhibition
In this section, each of the compounds is paired with its reported cytotoxicity at 70.5 h.
Provide the reading as a plain figure in %.

compound="COCC(=O)N1C[C@H]2CCCC(OCc3cccnc3)[C@H]2C1 (stereo not given in full)" reported_measurement=-6.29
compound=Cn1cnnc1CC1CCN(Cc2nn(C)c3cccc(Cl)c23)CC1 reported_measurement=39.8
compound="OCCn1ncc2c1CN(CC1CCOc3ccccc3C1)C2 (stereo not given)" reported_measurement=-0.723
compound=CC(C)CNc1nc2c(cc1C(=O)NCC1CC1)CCNCC2 reported_measurement=24.9
compound="NC(=O)C1CCCN(c2ccc(CNC(=O)c3cc[nH]n3)cc2)C1 (stereo not given)" reported_measurement=5.04

// cytotoxicity at 70.5 h value for CN(c1ccncn1)C1CC2(CCN(C(=O)c3cncs3)C2)C1 (stereo not given) : -2.06

// Cc1cc(F)ccc1-n1cc(O)c(C(=O)NCC2(O)CCC2)n1 : cytotoxicity at 70.5 h value = 28.4

Reported cytotoxicity at 70.5 h of O=C(N1CCOCC1)N1CCc2ncc(CN3CCCCC3)n2CC1 : -12.1

Lab book: cytotoxicity at 70.5 h of CCOCCC(=O)Nc1cccc(Oc2ccccn2)c1 noted as 23.9

Just so you know, measured cytotoxicity at 70.5 h for O=C(NCC(c1cccs1)N1CCOCC1)c1ccc(F)cc1Cl (stereo not given) came out at -5.9

Item: CC(=O)NCCC(=O)N(C/C=C/c1ccccc1)CCO | cytotoxicity at 70.5 h: 24

Sure, the documented cytotoxicity at 70.5 h for Cc1nc(C)n(C2CCCN(C(=O)c3cn4cccnc4n3)C2)n1 (stereo not given) is 2.73

cytotoxicity at 70.5 h reported for this compound CCC1CCN(CCn2cnc3c(C)csc3c2=O)CC1 : -6.08

Lab note: measured cytotoxicity at 70.5 h of Cc1noc(C)c1CNC(=O)Nc1ccc(N2CCOC2=O)cc1 was -17.5

Value of measured cytotoxicity at 70.5 h for the entry COCCNC(=O)[C@H]1CN2CCC1C[C@@H]2Cn1cc(C(C)(C)C)nn1 (stereo not given in full) : -0.883

Quick note, cytotoxicity at 70.5 h for Cc1nc2ccnn2c(C)c1CCC(=O)N1CCN2CCCCC2C1 (stereo not given) landed at -9.21

Measured cytotoxicity at 70.5 h of CCc1nc2n(n1)CC(NCc1ncc(-c3ccccc3)o1)CC2 (stereo not given) : -5.1

Measured cytotoxicity at 70.5 h, CC(C)CC(CNC(=O)c1cccnc1Oc1cccnc1)N(C)C (stereo not given) : 8.64

Record summary for CCc1nonc1NC(=O)C(C)Oc1ccccc1F (stereo not given) : reported cytotoxicity at 70.5 h = -10.4

Per the record, CN1CCc2[nH]cnc2C12CCN(C(=O)c1noc3c1CCCC3)CC2 has cytotoxicity at 70.5 h of -10.9

# cytotoxicity at 70.5 h (compound: Cc1ccc(N2CCN(c3ccccc3C)CC2C)nn1 (stereo not given) ) is -0.203

---

Listed here are molecules together with their documented cytotoxicity at 70.5 h.
# procedure summary: Human HepG2 cell viability assay in 384 well format
# Assay type: toxicity, cell-based
# Set-up: dose 125 nL, time 70.5 hour; concentration not given beside the values
# measurement context: HepG2 cells, read-out: Inhibition

Some solved cases for reference:
molecule=Cc1cccc(N2CCC3(CCCC(=O)N3)CC2)n1 assay_endpoint="cytotoxicity at 70.5 h" reported_measurement=-0.82%
molecule=C/C=C(\C)CN1C[C@H](NC(=O)c2cc[nH]c2C)[C@@H](C2CC2)C1 assay_endpoint="cytotoxicity at 70.5 h" reported_measurement=10.6%
molecule="CC(C)(C)N1CC(c2ncc(-c3ccc4c(c3)OCCO4)[nH]2)CC1=O (configuration not stated)" assay_endpoint="cytotoxicity at 70.5 h" reported_measurement=-2.24%
molecule=Cc1nc(CN2CC[C@H]3[C@H]2CCN3c2nncs2)cs1 assay_endpoint="cytotoxicity at 70.5 h" reported_measurement=-3.7%
molecule=COc1ccccc1CNC(=O)N1CCN(Cc2cc(C)on2)CC1 assay_endpoint="cytotoxicity at 70.5 h" reported_measurement=-2.55%
molecule="Cc1nsc(NC2CCOC3(CCCCC3)C2)n1 (configuration not stated)" assay_endpoint="cytotoxicity at 70.5 h" reported_measurement=-8.47%
molecule="Cc1cscc1-c1nc(C2CCOC2)no1 (configuration not stated)" assay_endpoint="cytotoxicity at 70.5 h" reported_measurement=-5.31%
molecule="CN1CCN(Cc2cnc(S(=O)(=O)CC3CC3)n2CC2CCCO2)CC1 (configuration not stated)" assay_endpoint="cytotoxicity at 70.5 h" reported_measurement=-4.87%

For this molecule ( Cc1cc2nc(CO[C@H]3CN(C4CCC4)C[C@H]3F)[nH]c2cc1C ), measured cytotoxicity at 70.5 h is -2.01%

Measured cytotoxicity at 70.5 h, CN(CCCNC(=O)c1ccccc1OCC(N)=O)CC(F)(F)F : 1.62%
